Target: T1, human galectin-10-His (human)
T1 construct: The last M of the tag may be Met1 of galectin-10; also called humanGal10-His; hGal10
T1 chain: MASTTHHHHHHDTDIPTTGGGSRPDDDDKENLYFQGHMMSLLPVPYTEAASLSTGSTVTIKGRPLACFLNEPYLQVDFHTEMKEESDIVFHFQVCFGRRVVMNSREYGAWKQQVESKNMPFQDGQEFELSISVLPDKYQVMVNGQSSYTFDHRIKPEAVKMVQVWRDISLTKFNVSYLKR
Assay: SPR Biacore T3000, scFv-human Fc captured
Metric Name: koff (s⁻¹)

[
  {
    "Binder": "7B07 scFv-human Fc (Fc fusion, also called 007B07; not shown: CH2-CH3 constant domains of human IgG1 (pUPEX50 scFv-Fc fusion vector)) scFv: QVQLVESGGGLVQPGGSLRLSCAASGFTFRSYDMSWVRQAPGKGPEWVSAIKNGGGITYYADSVKGRFTISRDNAKNTLYLQMNSLKPEDTAVYYCATTHGIGTLGFGSWGQGTQVTVSSGGGGSGGGGSGGGGSSYELTQSASVSVALTQTAKITCDGNNIGSKSAQWYQQKPGQAPALVIYADEYRPEGIPERFSGSNSGNTATLIISGAQAEDEADYYCQVWDGSAAVFGRGTHLTVL",
    "Numeric Readout": 0.00124
  },
  {
    "Binder": "10D02 scFv-human Fc (Fc fusion, also called 010D02; not shown: CH2-CH3 constant domains of human IgG1 (pUPEX50 scFv-Fc fusion vector)) scFv: EVQLVESGGGLVQPGGSLRVSCAASGFTFSSYYMSWVRQAPGKGLEWVSGIVTGGGRTHYTDSVKGRFTITRDNAKNTLYLQMNSLRPEDTALYYCARVNGVVTNYDYWGQGTQVTVSSGGGGSGGGGSGGGGSQAVLTQPPSVSGSPGKTVTISCAGTSSDVGYGNYVSWYQQLPGMAPKLLIYDVNKRASGITDRFSGSKSGNTASLTISGLQSEDEADYFCASYRSPNNVVFGQGTHLTVL",
    "Numeric Readout": 0.00066
  },
  {
    "Binder": "8H11 scFv-human Fc (Fc fusion, also called 008H11; not shown: CH2-CH3 constant domains of human IgG1 (pUPEX50 scFv-Fc fusion vector)) scFv: ELQLVESGGGLVQPGGSLRLSCAASGFTFSTNYMNWVRQAPGKGLEWVSGITSGGGRTYYADSVKGRFTISRDNAKNTLYLQMNSLKPEDTALYYCARTDHAWLDAWGQGTLVTVSSGGGGSGGGGSGGGGSQAGLTQPPSVSGTLGKTVTISCAGTSSDVGYGNYVSWYQQLPGTAPKLLIYAVSTRASGIPDRFSGSKSGNTASLTISGLLSEDEADYYCASYRSSNNYVFGGGTKLTVL",
    "Numeric Readout": 0.00082
  },
  {
    "Binder": "11F12 scFv-human Fc (Fc fusion, also called 011F12; not shown: CH2-CH3 constant domains of human IgG1 (pUPEX50 scFv-Fc fusion vector)) scFv: QVQLQESGGGLVQPGGSLRLSCAASGFTFSTNYMNWVRQAPGKGLEWVSGITSGGGRTYYADSVKGRFTISRDNAKNTLYLQMNSLKPEDTALYYCARTDHAWLDAWGQGTLVTVSSGGGGSGGGGSGGGGSHSAVTQPPSVSGTLGKTVTISCAGTSSDVGYGNYVSWYQHLPGTAPKLLIYAVSTRASGVPDRFSGSKSGNTASLTISGLQSEDEGDYYCASYSVRNNVVFGGGTRLTVL",
    "Numeric Readout": 0.00072
  }
]
